organism: Homo sapiens; assay: Selectivity ratio of Ki for recombinant human His6-tagged HexB expressed in Pichia pastoris to Ki for recombinant human OGA expressed in Escherichia coli BL21 (DE3)
MEASURED_ENDPOINT: Ratio Ki

As a guide, the following entries are already answered.
CC(=O)N[C@@H]1[C@@H](O)[C@H](O)[C@@H](CO)O[C@H]1SCCNCCCN1C(=O)c2cccc3cccc(c23)C1=O: 8
COc1ccc2c3c(cccc13)C(=O)N(CCCNCCCS[C@@H]1O[C@H](CO)[C@@H](O)[C@H](O)[C@H]1NC(C)=O)C2=O: 1.6
CC(=O)N[C@@H]1[C@@H](O)[C@H](O)[C@@H](CO)O[C@H]1SCCNCCCN1C(=O)c2cccc3c(Cl)ccc(c23)C1=O: 2
CC(=O)N[C@@H]1[C@@H](O)[C@H](O)[C@@H](CO)O[C@H]1SCCCNCCN1C(=O)c2cccc3c(Br)ccc(c23)C1=O: 1.5

[A] COc1ccc2c3c(cccc13)C(=O)N(CCCNCCS[C@@H]1O[C@H](CO)[C@@H](O)[C@H](O)[C@H]1NC(C)=O)C2=O
[B] COc1ccc2c3c(cccc13)C(=O)N(CCNCCS[C@@H]1O[C@H](CO)[C@@H](O)[C@H](O)[C@H]1NC(C)=O)C2=O
// query // task: argmin of Ratio Ki over [ A , B ] Mark your selection by writing its label.
// result B

[P] CC(=O)N[C@@H]1[C@@H](O)[C@H](O)[C@@H](CO)O[C@H]1SCCCNCCCN1C(=O)c2cccc3c(Cl)ccc(c23)C1=O
[Q] CC(=O)N[C@@H]1[C@@H](O)[C@H](O)[C@@H](CO)O[C@H]1SCCNCCN1C(=O)c2cccc3c(Br)ccc(c23)C1=O
[R] CC(=O)N[C@@H]1[C@@H](O)[C@H](O)[C@@H](CO)O[C@H]1SCCNCCN1C(=O)c2cccc3c(Cl)ccc(c23)C1=O
// query Rank items: key Ratio Ki, increasing. Sort the labels as requested; that list is your answer.
// result R, P, Q

---

Biological target: Protein O-GlcNAcase (Homo sapiens)
Sequence (whole entry): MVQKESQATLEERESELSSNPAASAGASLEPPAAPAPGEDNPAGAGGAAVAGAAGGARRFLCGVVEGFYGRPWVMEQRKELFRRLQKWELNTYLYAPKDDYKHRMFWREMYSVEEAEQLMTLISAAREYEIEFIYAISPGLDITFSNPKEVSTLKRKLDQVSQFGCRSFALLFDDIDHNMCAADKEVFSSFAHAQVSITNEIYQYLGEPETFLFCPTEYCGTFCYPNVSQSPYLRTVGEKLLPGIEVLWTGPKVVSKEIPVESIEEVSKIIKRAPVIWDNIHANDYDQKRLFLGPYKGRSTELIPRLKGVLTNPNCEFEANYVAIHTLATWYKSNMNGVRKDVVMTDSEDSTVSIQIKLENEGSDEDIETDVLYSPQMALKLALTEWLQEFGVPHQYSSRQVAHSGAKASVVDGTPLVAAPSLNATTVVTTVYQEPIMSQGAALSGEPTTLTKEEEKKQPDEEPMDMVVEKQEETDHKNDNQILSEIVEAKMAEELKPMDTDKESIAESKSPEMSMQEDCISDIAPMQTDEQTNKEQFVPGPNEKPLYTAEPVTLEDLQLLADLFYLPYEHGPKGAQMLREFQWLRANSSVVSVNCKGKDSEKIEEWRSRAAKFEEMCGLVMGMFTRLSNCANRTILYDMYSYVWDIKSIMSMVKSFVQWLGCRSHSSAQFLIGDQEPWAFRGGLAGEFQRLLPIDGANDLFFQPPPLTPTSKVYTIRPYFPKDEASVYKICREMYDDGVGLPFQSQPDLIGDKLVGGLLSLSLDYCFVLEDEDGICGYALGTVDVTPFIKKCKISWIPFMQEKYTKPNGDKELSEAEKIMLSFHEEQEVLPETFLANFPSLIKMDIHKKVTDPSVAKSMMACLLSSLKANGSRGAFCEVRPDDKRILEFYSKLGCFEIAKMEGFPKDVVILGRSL
Assay: Inhibition of recombinant human OGA expressed in Escherichia coli BL21 (DE3) at 20 uM using 4-Mu-GlcNAc as substrate preincubated for 10 mins followed by substrate addition and measured after 30 mins by fluorescence assay relative to control
MEASURED_ENDPOINT: inhibition (%)

COc1ccc2c3c(cccc13)C(=O)N(CCCNCCS[C@@H]1O[C@H](CO)[C@@H](O)[C@H](O)[C@H]1NC(C)=O)C2=O: 73.1
CC(=O)N[C@@H]1[C@@H](O)[C@H](O)[C@@H](CO)O[C@H]1SCCCNCCN1C(=O)c2cccc3c(Br)ccc(c23)C1=O: 75.7
CC(=O)N[C@@H]1[C@@H](O)[C@H](O)[C@@H](CO)O[C@H]1SCCNCCCN1C(=O)c2cccc3c([N+](=O)[O-])ccc(c23)C1=O: 55

[A] CC(=O)N[C@@H]1[C@@H](O)[C@H](O)[C@@H](CO)O[C@H]1SCCCNCCCN1C(=O)c2cccc3c(N(C)C)ccc(c23)C1=O
[B] CC(=O)N[C@@H]1[C@@H](O)[C@H](O)[C@@H](CO)O[C@H]1SCCNCCN1C(=O)c2cccc3c(Br)ccc(c23)C1=O
// query Please state the entry with greater inhibition among A and B . Mark your selection by writing its label.
// result B
(B: 73.2%, A: 28.2%)
